# Tested on: primary human mesenchymal stem cells (hMSCs)
# Experiment Summary: Chondrogenesis screening using primary human mesenchymal stem cells
# Assay type: cell-based
# Study Conditions: Homo sapiens, Mesenchymal stem cells, hMSC chondrogenesis; concentration required to induce 50% levels of chondrogenesis with TGF-β3 as positive control; read-out: Conc (nM) of 50% TGF-β3 activity
# Method: Representative compounds were screened using primary human mesenchymal stem cells (hMSCs) to determine their ability to induce chondrogenesis (process by which cartilage is developed). […] Area of nodules in each well was normalized to the average of 3 DMSO treated wells on the same plate using Excel (Microsoft Inc.). The normalized averages (fold change over DMSO) of 2 or 3 replicate wells for each compound concentration were calculated. […]
Readout Label: EC50 (nM)

CC(C)CC(=O)Nc1cncc(-c2ccc3[nH]nc(-c4nc5c(-c6cccnc6)cncc5[nH]4)c3c2)c1 [compound 189]: 100
O=C(Nc1cncc(-c2cc3c(-c4cc5c(-c6ccc(F)cc6)nccc5[nH]4)n[nH]c3cn2)c1)C1CC1 [compound 314]: 30
CCCC(=O)Nc1cncc(-c2cc3c(-c4nc5c(-c6cccc(F)c6)nccc5[nH]4)n[nH]c3cn2)c1 [compound 122]: 10
Cc1ccc(-c2nccc3[nH]c(-c4n[nH]c5ccc(-c6cncc(N)c6)nc45)nc23)s1 [compound 275]: 10
CN1CCCn2cc(nn2)-c2nccc3[nH]c(nc23)-c2n[nH]c3ccc(cc23)-c2cncc(c2)C1 [compound 621]: 10
COc1cncc(-c2cc3c(-c4nc5c(-c6cccc(F)c6)cncc5[nH]4)n[nH]c3cn2)c1 [compound 147]: 300
CCNCc1cncc(-c2cnc3[nH]nc(-c4cc5c(-c6cc(F)cc(CNS(C)(=O)=O)c6)nccc5[nH]4)c3c2)c1 [compound 532]: 300
O=C(CC1CCNCC1)Nc1cncc(-c2ccc3[nH]nc(-c4cc5c(-c6ccoc6)ccnc5[nH]4)c3n2)c1 [compound 501]: 10

I: CC(C)(C)CC(=O)Nc1cncc(-c2ccc3[nH]nc(-c4nc5ccncc5[nH]4)c3n2)c1 [compound 203]
II: CCC(=O)Nc1cncc(-c2cnc3[nH]nc(-c4nc5c(-c6ccsc6)cccc5[nH]4)c3c2)c1 [compound 243]
Could you check which of I and II has a smaller value for EC50? # respond with the chosen item's label
I

P: c1cc(-c2cncc3[nH]c(-c4n[nH]c5ccc(-c6cncc(CN7CCCCC7)c6)nc45)cc23)ccn1 [compound 403]
Q: CCNCc1cncc(-c2ccc3[nH]nc(-c4nc5c(-c6cc(F)cc(NCCN(C)C)c6)ccnc5[nH]4)c3n2)c1 [compound 286]
Short answer wanted: higher EC50, P or Q ? Respond using the label that marks the chosen record.
Q

a: CN1CCN(c2ccnc3[nH]c(-c4n[nH]c5ccc(-c6cncc(NC(=O)c7ccccc7)c6)nc45)cc23)CC1 [compound 488]
b: O=C(Nc1cncc(-c2ccc3[nH]nc(-c4nc5c(-c6ccc(F)cc6)cncc5[nH]4)c3c2)c1)C1CCC1 [compound 164]
Compare a and b by numeric EC50 and name the larger one. Could you answer with the label of the item you picked?
b
(b: 100 nM, a: 10 nM)

----------
# Target Entity: CLK2 kinase (Homo sapiens, UniProt P49760)
# Sequence (P49760 whole entry): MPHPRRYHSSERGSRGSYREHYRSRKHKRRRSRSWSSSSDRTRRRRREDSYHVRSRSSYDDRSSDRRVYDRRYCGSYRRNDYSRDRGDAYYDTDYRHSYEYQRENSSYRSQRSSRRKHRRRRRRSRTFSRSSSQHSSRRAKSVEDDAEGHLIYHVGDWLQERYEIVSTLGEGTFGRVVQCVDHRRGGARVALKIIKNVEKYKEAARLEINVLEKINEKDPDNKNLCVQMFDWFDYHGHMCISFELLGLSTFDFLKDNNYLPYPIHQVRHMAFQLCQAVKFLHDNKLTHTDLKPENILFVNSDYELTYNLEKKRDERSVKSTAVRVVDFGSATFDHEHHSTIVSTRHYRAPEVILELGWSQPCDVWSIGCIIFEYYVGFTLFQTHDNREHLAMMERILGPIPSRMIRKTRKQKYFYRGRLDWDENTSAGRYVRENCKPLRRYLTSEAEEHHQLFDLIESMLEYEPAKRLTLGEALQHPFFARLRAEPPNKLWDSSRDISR
# Experiment Summary: CLK2 kinase activity assay (Z-lyte FRET)
# Study Conditions: Z-lyte Ser/Thr 6 peptide, 60 μM ATP, 1 h at room temperature
Readout Label: EC50 (nM)

# example entries with known answers
O=C(Nc1cc2cc(-c3cncs3)ccc2cn1)c1ccc2c(c1)CNCC2: 2
FC1(F)CCN(Cc2cncc(-c3cc4c(-c5cc6cccnc6[nH]5)n[nH]c4cn3)c2)C1: 5
CC(C)Nc1cncc(-c2ccc3[nH]nc(-c4nc5c(-c6ccoc6)cncc5[nH]4)c3n2)c1: 2

1: COc1ccc(NC(=O)c2n[nH]c3ccc(-c4cncc(CN5CCCC5)c4)cc23)cn1
2: CC(C)Nc1cncc(-c2cnc3[nH]nc(-c4nc5c(-c6cc(F)cc(NCCN(C)C)c6)nccc5[nH]4)c3c2)c1
3: CCNCc1cncc(-c2ccc3[nH]nc(-c4nc5c(-c6cc(F)cc(NCCN(C)C)c6)nccc5[nH]4)c3n2)c1
4: O=C(Nc1cncc(-c2ccc3[nH]nc(-c4nc5c(-c6ccc(Cl)s6)ccnc5[nH]4)c3n2)c1)C1CCC1
Which order do these items take when sorted by rising EC50? List them. Thanks in advance for listing the labels in the requested order.
3, 1, 2, 4

----------
# Target Entity: CLK2 kinase (Homo sapiens, UniProt P49760)
# Experiment Summary: CLK2 kinase activity assay (Z-lyte FRET)
# Study Conditions: Z-lyte Ser/Thr 6 peptide, 60 μM ATP, 1 h at room temperature
Readout Label: EC50 (nM)

a: O=C(Nc1cncc(-c2cnc3[nH]nc(-c4cc5c(-c6ccccc6F)cncc5[nH]4)c3c2)c1)C1CC1 [compound 329]
b: CN(C)C(=O)Nc1cncc(-c2cnc3[nH]nc(-c4nc5c(-c6cccc(F)c6)cncc5[nH]4)c3c2)c1 [compound 130]
Which entry shows the lesser value of EC50 here, a or b ? Lab note: record the label of whichever item you select.
b

a: O=C(Nc1cncc(-c2cnc3[nH]nc(-c4nc5c(-c6cccnc6)cncc5[nH]4)c3c2)c1)C1CC1 [compound 190]
b: CN1CCN(c2cc(C(=O)Nc3cc4c(Cl)c(-c5cnn(C)c5)ccc4cn3)ccn2)CC1 [compound 547]
c: c1cc2cc(c1)-c1cncc3[nH]c(nc13)-c1n[nH]c3ccc(cc13)-c1cncc(c1)CNC2 [compound 618]
Ascending by EC50, please: list the compounds accordingly. Record the ranking as a list of labels in the requested order.
c, b, a

I: FC1(F)CCN(Cc2cncc(-c3ccc4[nH]nc(-c5cc6c(N7CCCCC7)ccnc6[nH]5)c4n3)c2)C1 [compound 468]
II: Fc1ccc(-c2nccc3[nH]c(-c4n[nH]c5ccc(-c6cncc(CN7CCCC7)c6)cc45)cc23)cc1 [compound 315]
III: Cn1ncc(-c2ccc3cnc(NC(=O)c4ccc(OC(F)F)cc4)cc3c2)c1CO [compound 567]
IV: CN1CCC(Nc2ccc(NC(=O)c3n[nH]c4cc(F)c(-c5cnn(C)c5)cc34)cn2)CC1 [compound 109]
Sort the compounds on EC50; start with the lowest figure. Your task in answering is to list the labels in the requested order.
IV, II, I, III

P: O=C(Nc1cc2cc(-c3cncc(NC4CCNCC4)n3)ncc2cn1)C1CCOCC1 [compound 613]
Q: Fc1ccc(-c2nnc(-c3n[nH]cc3/C=C/c3cccnc3)o2)cc1 [compound 23]
Among P and Q , whose measured EC50 is the smaller figure? Write down the label attached to your selection.
P
(P: 7 nM, Q: 27 nM)

A: CC(C)NC(=O)c1n[nH]c2ccc(-c3cncc(NC4CCNCC4)n3)cc12 [compound 105]
B: Clc1ccc(-c2cncc3[nH]c(-c4n[nH]c5ccc(-c6cncc(CN7CCCC7)c6)nc45)nc23)s1 [compound 270]
Which has the higher EC50, A or B ? Respond with the label that goes with your answer.
B

1: CN(C)CCN(C)c1ccc(NC(=O)c2n[nH]c3ccc(-c4cncc(CN5CCCCC5)c4)cc23)cn1 [compound 84]
2: c1cncc(-c2cnc3[nH]nc(-c4nc5c(-c6cccs6)cccc5[nH]4)c3c2)c1 [compound 254]
Which is greater in EC50, the first item 1 or the second item 2 ? Return value: the label identifying the chosen record.
2
(2: 3 nM, 1: 1 nM)

----------
# System: primary human mesenchymal stem cells (hMSCs)
# Experiment Summary: Chondrogenesis screening using primary human mesenchymal stem cells
# Format: cell-based
# Study Conditions: Homo sapiens, Mesenchymal stem cells, hMSC chondrogenesis; concentration required to induce 50% levels of chondrogenesis with TGF-β3 as positive control; read-out: Conc (nM) of 50% TGF-β3 activity
# Protocol: Representative compounds were screened using primary human mesenchymal stem cells (hMSCs) to determine their ability to induce chondrogenesis (process by which cartilage is developed). […] Area of nodules in each well was normalized to the average of 3 DMSO treated wells on the same plate using Excel (Microsoft Inc.). The normalized averages (fold change over DMSO) of 2 or 3 replicate wells for each compound concentration were calculated. […]
Readout Label: EC50 (nM)

1: CN(C)CCNc1cc(F)cc(-c2cccc3[nH]c(-c4n[nH]c5cnc(-c6cncc(O)c6)cc45)cc23)c1
2: COc1cccc(-c2ccnc3[nH]c(-c4n[nH]c5ccc(-c6cccnc6)nc45)nc23)c1
3: CC(C)Nc1cncc(-c2ccc3[nH]nc(-c4nc5c(-c6ccoc6)nccc5[nH]4)c3n2)c1
Arrange items by their EC50 values in increasing order. In your reply, arrange the labels in the requested order.
1, 3, 2
(1: 10 nM, 3: 30 nM, 2: 100 nM)

----------
# Target Entity: CLK2 kinase (Homo sapiens, UniProt P49760)
# Experiment Summary: CLK2 kinase activity assay (Z-lyte FRET);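 also: FRET read-out as coumarin to fluorescein emission ratio, unphosphorylated peptide as 0% and phosphorylated peptide as 100% controls, duplicate reactions, non-linear regression fit of dose-response curves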
# Study Conditions: Z-lyte Ser/Thr 6 peptide, 60 μM ATP, 1 h at room temperature
pEC50: −log10 of the molar value.
Readout Label: pEC50

Record excerpt, results attached:
c1ccc2[nH]c(-c3n[nH]c4ncc(-c5cncc(CN6CCCC6)c5)cc34)cc2c1: 8.05
CC(C)Nc1cncc(-c2ccc3cnc(NC(=O)c4cccc(C5CCN(C)CC5)c4)cc3c2)n1: 8.70
CCC(=O)Nc1cncc(-c2cnc3[nH]nc(-c4nc5c(-c6cccs6)cncc5[nH]4)c3c2)c1: 8.52
CCCCC(=O)Nc1cncc(-c2ccc3[nH]nc(-c4cc5cccnc5[nH]4)c3c2)c1: 7.96
FC1(F)CCN(Cc2cncc(-c3cnc4[nH]nc(-c5nc6c(-c7ccoc7)nccc6[nH]5)c4c3)c2)C1: 8.40
CN(C)Cc1cncc(-c2ccc3[nH]nc(-c4nc5c(-c6cccc(F)c6)cccc5[nH]4)c3n2)c1: 8.70
CCCC(=O)Nc1cncc(-c2cnc3[nH]nc(-c4cc5c(-c6cc(F)cc(CNS(C)(=O)=O)c6)cncc5[nH]4)c3c2)c1: 8.15
O=C(Nc1cncc(-c2cnc3[nH]nc(-c4nc5c(-c6cccnc6)cncc5[nH]4)c3c2)c1)C1CCC1: 8.52
CCC(=O)Nc1cncc(-c2cnc3[nH]nc(-c4nc5c(-c6ccc(F)cc6)cncc5[nH]4)c3c2)c1: 8.52
O=C(Nc1ccc(C(=O)N2CCCC2)nc1)c1n[nH]c2ccc(-c3cncc(CN4CCCCC4)c3)cc12: 9.00

a: CN1CCN(c2nccc3[nH]c(-c4n[nH]c5ccc(-c6cncc(CN7CCCC7)c6)cc45)cc23)CC1
b: Nc1cncc(-c2ccc3[nH]nc(-c4nc5c(-c6ccccc6F)nccc5[nH]4)c3c2)c1
Return label of the item with the larger pEC50. Candidates: a , b . # reply format: chosen label
b
(b: 8.70, a: 7.92)

a: CS(=O)(=O)NCc1cc(F)cc(-c2cncc3[nH]c(-c4n[nH]c5ccc(-c6cncc(NC(=O)C7CCC7)c6)cc45)cc23)c1
b: Cc1ncc(NC(=O)c2n[nH]c3ccc(-c4cnn(C5CCN(C)CC5)c4)cc23)s1
From the items above, decide which of a and b has the lower pEC50 reading. Pick one; state its label.
a
